# SUBJECT_OF_TEST: Cholecystokinin receptor type A (Rattus norvegicus)
# Sequence (P30551 whole entry): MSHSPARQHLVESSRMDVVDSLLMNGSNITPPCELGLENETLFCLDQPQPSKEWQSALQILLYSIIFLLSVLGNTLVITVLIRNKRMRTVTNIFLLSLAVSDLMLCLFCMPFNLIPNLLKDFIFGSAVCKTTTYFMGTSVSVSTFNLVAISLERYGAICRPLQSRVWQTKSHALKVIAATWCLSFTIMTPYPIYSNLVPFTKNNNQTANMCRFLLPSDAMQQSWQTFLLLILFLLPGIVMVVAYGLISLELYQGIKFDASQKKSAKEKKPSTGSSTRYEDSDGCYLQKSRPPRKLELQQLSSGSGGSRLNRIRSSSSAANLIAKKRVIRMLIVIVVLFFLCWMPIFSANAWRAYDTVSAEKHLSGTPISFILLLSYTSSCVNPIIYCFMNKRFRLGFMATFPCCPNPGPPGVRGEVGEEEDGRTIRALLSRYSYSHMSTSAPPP
# ASSAY_METHOD_TEXT: In vitro inhibition of binding of [3H]pCCK-8 against Cholecystokinin type A receptor of rat pancreatic membranes
# Assay type: cell membranes, Membrane
pKi: −log10 of the molar value.
Mark Fulfilled for reported pKi of 7 or greater; mark Not fulfilled for anything smaller.

Request: Is pKi at least 7? Consider CSc1cccc(NC(=O)NC2C(=O)N(CCC(C)C)c3ccccc3N(c3ccccc3F)C2=O)c1 (racemic)
Response: Fulfilled

Request: Is pKi at least 7? Consider Nc1cccc(NC(=O)NC2C(=O)N(CC34C[C@H]5C[C@@H](C3)C[C@@H](C4)C5)c3ccccc3N(c3ccccc3)C2=O)c1 (single isomer, unassigned; (+))
Response: Not fulfilled

Request: Is pKi at least 7? Consider CSc1cccc(NC(=O)NC2C(=O)N(CCC(C)(C)C)c3ccccc3N(c3ccccc3)C2=O)c1 (racemic)
Response: Fulfilled

Request: Is pKi at least 7? Consider CN(C)c1cccc(NC(=O)NC2C(=O)N(CCC3CCCC3)c3ccccc3N(c3ccccc3F)C2=O)c1 (racemic)
Response: Fulfilled

Request: Is pKi at least 7? Consider CN(C)c1cccc(NC(=O)NC2C(=O)N(CC34C[C@H]5C[C@@H](C3)C[C@@H](C4)C5)c3ccccc3N(c3ccccc3)C2=O)c1 (mixture of isomers)
Response: Not fulfilled

###

# Species: Cavia porcellus
# ASSAY_METHOD_TEXT: Selectivity factor between CCK-B and CCK-A receptors
Mark Fulfilled for Ratio under 100, Not fulfilled if at or over.

Request: Is the reported Ratio for CSc1cccc(NC(=O)NC2C(=O)N(CCC(C)(C)C)c3ccccc3N(c3ccccc3F)C2=O)c1 (racemic) strictly below 100?
Response: Fulfilled

Request: Is the reported Ratio for O=C(Nc1ccccc1)NC1C(=O)N(CCC2CCCC2)c2ccccc2N(c2ccccc2F)C1=O (racemic) strictly below 100?
Response: Not fulfilled

Request: Is the reported Ratio for CC(C)CCN1C(=O)C(NC(=O)Nc2cccc(N(C)C)c2)C(=O)N(c2ccccc2F)c2ccccc21 (racemic) strictly below 100?
Response: Not fulfilled

Request: Is the reported Ratio for CC(C)CCN1C(=O)C(NC(=O)Nc2cccc(N(C)C)c2)C(=O)N(c2ccccc2F)c2ccccc21 (single isomer, unassigned; (-)) strictly below 100?
Response: Fulfilled

Request: Is the reported Ratio for O=C(Nc1cccc(O)c1)NC1C(=O)N(CC23C[C@H]4C[C@@H](C2)C[C@@H](C3)C4)c2ccccc2N(c2ccccc2)C1=O (single isomer, unassigned; (+)) strictly below 100?
Response: Not fulfilled

Request: Is the reported Ratio for CC(C)C(C)CN1C(=O)C(NC(=O)Nc2ccccc2)C(=O)N(c2ccccc2)c2ccccc21 (racemic) strictly below 100?
Response: Not fulfilled
